Target: T1, VchI (Vibrio cholerae)
T1 chain: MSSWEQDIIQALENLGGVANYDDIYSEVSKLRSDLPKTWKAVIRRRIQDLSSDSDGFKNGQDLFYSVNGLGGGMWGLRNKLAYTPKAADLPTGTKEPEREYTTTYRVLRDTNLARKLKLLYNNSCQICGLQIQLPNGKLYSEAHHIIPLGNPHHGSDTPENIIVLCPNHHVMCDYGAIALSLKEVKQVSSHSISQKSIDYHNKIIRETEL
Assay: EMSA

binder: 60bp-3 (dsDNA, N6-methyladenine in any context (M.EcoGII)) DNA 1: GCCTTCCCCATTATGATTCTTCTCGCTTCCGGCGGCATCGGGATGCCCGCGTTGCAGGCC DNA 2: GGCCTGCAACGCGGGCATCCCGATGCCGCCGGAAGCGAGAAGAATCATAATGGGGAAGGC
binding result: binds
//
binder: 60bp-2 (dsDNA, N6-methyladenine in any context (M.EcoGII)) DNA 1: GGGCTACGTCTTGCTGGCGTTCGCGACGCGAGGCTGGATGGCCTTCCCCATTATGATTCT DNA 2: AGAATCATAATGGGGAAGGCCATCCAGCCTCGCGTCGCGAACGCCAGCAAGACGTAGCCC
binding result: binds
//
binder: 60bp-4 (dsDNA, N6-methyladenine in any context (M.EcoGII)) DNA 1: GGATGCCCGCGTTGCAGGCCATGCTGTCCAGGCAGGTAGATGACGACCATCAGGGACAGC DNA 2: GCTGTCCCTGATGGTCGTCATCTACCTGCCTGGACAGCATGGCCTGCAACGCGGGCATCC
binding result: no binding
//
binder: 60bp-5 (dsDNA, N6-methyladenine in any context (M.EcoGII)) DNA 1: TGACGACCATCAGGGACAGCTTCAAGGATCGCTCGCGGCTCTTACCAGCCTAACTTCGAT DNA 2: ATCGAAGTTAGGCTGGTAAGAGCCGCGAGCGATCCTTGAAGCTGTCCCTGATGGTCGTCA
binding result: binds
//
binder: 60bp-7 (dsDNA, N6-methyladenine in any context (M.EcoGII)) DNA 1: CGGCGATTTATGCCGCCTCGGCGAGCACATGGAACGGGTTGGCATGGATTGTAGGCGCCG DNA 2: CGGCGCCTACAATCCATGCCAACCCGTTCCATGTGCTCGCCGAGGCGGCATAAATCGCCG
binding result: binds
//
binder: 60bp-1 (dsDNA, N6-methyladenine in any context (M.EcoGII)) DNA 1: AGAAGCAGGCCATTATCGCCGGCATGGCGGCCGACGCGCTGGGCTACGTCTTGCTGGCGT DNA 2: ACGCCAGCAAGACGTAGCCCAGCGCGTCGGCCGCCATGCCGGCGATAATGGCCTGCTTCT
binding result: no binding
